EC50 values by entry
system: Plasmodium falciparum; experiment: Antimalarial activity against Plasmodium falciparum 3D7 by [3H]hypoxanthine incorporation assay in presence of human serum; format: functional, organism-based
Dear colleague, please return just the value in nM, with no unit written.

Solved cases below.
Noted for "COCc1nc2nc(C)cc(Nc3ccc(S(F)(F)(F)(F)F)cc3)n2n1" : its EC50 reads 2100

Sample Cc1cc(Nc2ccc(S(F)(F)(F)(F)F)cc2)n2nc(C(C)(F)F)nc2n1 [DSM-265] ; EC50 observed: 46

Consider the record given below.
Record summary for "COCc1nc2nc(C)cc(Nc3ccc(C(F)(F)F)cc3)n2n1" : reported EC50 = 1000

###

# IC50 measurements, system: Dihydroorotate dehydrogenase (Plasmodium falciparum)
# Sequence (Q54A96 whole entry): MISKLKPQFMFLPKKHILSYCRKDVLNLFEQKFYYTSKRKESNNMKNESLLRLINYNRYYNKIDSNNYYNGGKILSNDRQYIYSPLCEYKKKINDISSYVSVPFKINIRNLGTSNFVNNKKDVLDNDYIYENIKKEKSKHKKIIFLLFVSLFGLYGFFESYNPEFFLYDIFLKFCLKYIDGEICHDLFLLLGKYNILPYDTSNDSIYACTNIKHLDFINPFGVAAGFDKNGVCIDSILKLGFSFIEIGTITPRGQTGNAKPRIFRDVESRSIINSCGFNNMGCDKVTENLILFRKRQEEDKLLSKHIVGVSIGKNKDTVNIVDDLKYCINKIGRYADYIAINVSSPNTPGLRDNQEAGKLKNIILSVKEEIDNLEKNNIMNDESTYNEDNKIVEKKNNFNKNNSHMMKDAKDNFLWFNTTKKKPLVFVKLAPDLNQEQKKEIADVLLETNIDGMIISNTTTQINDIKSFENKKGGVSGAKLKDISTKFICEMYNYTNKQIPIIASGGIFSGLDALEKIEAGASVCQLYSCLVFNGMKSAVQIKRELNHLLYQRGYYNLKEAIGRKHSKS
Form entry: value (nM) — number only.

For "CCOc1nc2nc(C)cc(Nc3ccc(C(F)(F)F)cc3)n2n1" on Dihydroorotate dehydrogenase (Plasmodium falciparum), measured IC50 was 56

Others:
Per the reported Dihydroorotate dehydrogenase (Plasmodium falciparum) data, "CCc1nc2nc(C)cc(Nc3cccc(Cl)c3)n2n1" has IC50 of 240

Tested on Dihydroorotate dehydrogenase (Plasmodium falciparum): "Cc1cc(Nc2ccc(C(F)(F)F)cc2)n2nc(S(C)(=O)=O)nc2n1" . Observed IC50: 90

Case "Cc1cc(Nc2ccc(S(F)(F)(F)(F)F)cc2)n2nc(C(F)(F)F)nc2n1" , Dihydroorotate dehydrogenase (Plasmodium falciparum), IC50 recorded as 30

The compound "CCc1nc2nc(C)cc(Nc3ccc(C(F)(F)F)cc3)n2n1" , when measured on Dihydroorotate dehydrogenase (Plasmodium falciparum), yielded IC50 of 87

Readout IC50 for "Cc1cc(Nc2ccc(C(F)(F)F)cc2)n2nc(C(F)(F)F)nc2n1" , test system Dihydroorotate dehydrogenase (Plasmodium falciparum), was 35

Given the compound "Cc1cc(Nc2ccc(C(F)(F)F)cc2)n2nc(C(C)C)nc2n1" and test system Dihydroorotate dehydrogenase (Plasmodium falciparum), the measured IC50 is 110

###

assay: Terminal elimination half life in Sprague-Dawley rat at 18.8 mg/kg, po; assay type: ADME, organism-based; set-up: dose 18.8 mg/kg, route oral; settings: in vivo, read-out: beta t1/2 (converted)
propertyLabel: half-life
// return the numeric value with its unit appended

# half-life of "Cc1cc(Nc2ccc(S(F)(F)(F)(F)F)cc2)n2nc(C(C)(F)F)nc2n1" = 15.5 h

###

assay: Oral bioavailability in Sprague-Dawley rat at 21.2 mg/kg; assay type: ADME, organism-based; details: in vivo
propertyLabel: bioavailability

For this compound ( "Cc1cc(Nc2ccc(C(F)(F)F)cc2)n2nc(C(C)(F)F)nc2n1" ), measured bioavailability is > 100%

###

Entries and their measured fraction unbound follow.
assay: Plasma protein binding in Swiss outbred mouse by ultracentrifugation; details: read-out: PPB (converted)
Respond with the number and no other words.

// recorded fraction unbound for "Cc1cc(Nc2ccc(C(F)(F)F)cc2)n2nc(C(C)(F)F)nc2n1" : 0.026

// moving on: another record for fraction unbound
// field: fraction unbound; key: "Cc1cc(Nc2ccc(S(F)(F)(F)(F)F)cc2)n2nc(C(C)(F)F)nc2n1" ; value = 0.004

###

test: in vivo; details: Sprague-Dawley, rat, po, 2.1 mg/kg
propertyLabel: Tmax (h)
Kindly provide the numeric value in h only, without the unit symbol.

Reported Tmax for "Cc1cc(Nc2ccc(S(F)(F)(F)(F)F)cc2)n2nc(C(C)(F)F)nc2n1" was 3.25

All values here come from ChEMBL document CHEMBL1955725.
